The reader will find reported inhibition values listed item by item below.
measured_on: Serine/threonine-protein kinase MARK1 (Homo sapiens) (UniProt Q9P0L2)
Sequence (Q9P0L2 whole entry, looked up): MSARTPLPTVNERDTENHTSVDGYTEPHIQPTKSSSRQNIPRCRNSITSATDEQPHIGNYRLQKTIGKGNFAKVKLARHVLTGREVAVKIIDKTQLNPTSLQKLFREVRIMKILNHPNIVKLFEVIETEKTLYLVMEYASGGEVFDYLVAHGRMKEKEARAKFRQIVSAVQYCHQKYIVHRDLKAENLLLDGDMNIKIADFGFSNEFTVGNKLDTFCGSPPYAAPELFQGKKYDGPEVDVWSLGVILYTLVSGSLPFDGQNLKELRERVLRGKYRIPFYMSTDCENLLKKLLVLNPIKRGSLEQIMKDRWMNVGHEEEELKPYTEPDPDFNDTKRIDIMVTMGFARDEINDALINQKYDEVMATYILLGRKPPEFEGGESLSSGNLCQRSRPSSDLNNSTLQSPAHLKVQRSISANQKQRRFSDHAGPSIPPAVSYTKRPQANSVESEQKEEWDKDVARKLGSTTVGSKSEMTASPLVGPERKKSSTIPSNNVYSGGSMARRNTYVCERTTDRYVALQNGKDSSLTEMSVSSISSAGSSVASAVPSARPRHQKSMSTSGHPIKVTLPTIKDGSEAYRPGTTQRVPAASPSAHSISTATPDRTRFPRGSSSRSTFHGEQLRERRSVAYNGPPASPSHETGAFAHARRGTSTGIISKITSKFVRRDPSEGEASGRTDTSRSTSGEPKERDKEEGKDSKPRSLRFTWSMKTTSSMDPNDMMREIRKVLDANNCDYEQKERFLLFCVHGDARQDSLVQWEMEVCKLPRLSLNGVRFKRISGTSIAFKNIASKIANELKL
measurement_setup: at 0.1 µM
Description: GSK_PKIS: MARK1 mean inhibition at 0.1 uM [Nanosyn]

{"smiles_entry": "Fc1ccc(-c2ncn(C3CCNCC3)c2-c2ccnc(Oc3ccc4c(c3)OCO4)n2)cc1", "unit_text": "%", "inhibition": 2.98}
{"smiles_entry": "NC(=O)Cc1ccccc1Oc1nccc(-c2c(-c3ccc(F)cc3)ncn2C2CCNCC2)n1", "unit_text": "%", "inhibition": 2.13}
{"smiles_entry": "O=C1Nc2ccccc2/C1=C/Nc1ccc(-n2cncn2)cc1", "unit_text": "%", "inhibition": 5.86}
{"smiles_entry": "CCc1ccc(Oc2nccc(-c3c(-c4ccc(F)cc4)ncn3C3CCNCC3)n2)cc1", "unit_text": "%", "inhibition": 3.13}
{"smiles_entry": "COc1cc(Nc2ncc(-c3ccccc3)o2)cc(OC)c1OC", "unit_text": "%", "inhibition": 2.34}
{"smiles_entry": "Cc1nnc(-c2ccc(C)c(-c3ccc(C(=O)NCc4ccc(Cl)cc4)cc3)c2)o1", "unit_text": "%", "inhibition": 2.82}
{"smiles_entry": "O=C(Nc1n[nH]c2nc(-c3ccco3)ccc12)C1CC1", "unit_text": "%", "inhibition": -0.31}
{"smiles_entry": "COc1cccc(/C=N/Nc2ncnc3c2cnn3-c2cccc(OC)c2)c1", "unit_text": "%", "inhibition": 0.69}
{"smiles_entry": "NC(=O)c1cc(-c2ccncc2)cc(-c2ccccc2)c1N", "unit_text": "%", "inhibition": 4.42}
{"smiles_entry": "C[C@@H](Oc1cc(-n2cnc3ccc(OCC4CCN(C)CC4)cc32)sc1C(N)=O)c1ccccc1Cl", "unit_text": "%", "inhibition": 3.83}
{"smiles_entry": "CCc1cccc(CC)c1/C=C/c1cncc(C(=O)NC)c1", "unit_text": "%", "inhibition": 2.28}
{"smiles_entry": "O=C(Nc1n[nH]c2cc(-c3ccccc3)ccc12)C1CC1", "unit_text": "%", "inhibition": 4.97}
{"smiles_entry": "COc1cc2ncn(-c3cc(OCc4ccccc4C(F)(F)F)c(C(C)=O)s3)c2cc1OC", "unit_text": "%", "inhibition": 4.34}
{"smiles_entry": "CN(C)c1ccc2c(c1)/C(=C/Nc1ccc(S(N)(=O)=O)cc1)C(=O)N2", "unit_text": "%", "inhibition": 6.96}
{"smiles_entry": "COc1cc(N2CCN(C(C)C)CC2)ccc1Nc1nc(Nc2ccc(F)cc2C(=O)NC[C@@H](O)CO)c2cc[nH]c2n1", "unit_text": "%", "inhibition": 3.88}
{"smiles_entry": "NC(=O)c1cc(-c2ccc(F)cc2)cc(-c2ccncc2)c1N", "unit_text": "%", "inhibition": 2.29}
{"smiles_entry": "O=C(Nc1ccc(Oc2ccc3[nH]c(NC(=O)c4ccccc4)nc3c2)cc1)Nc1cc(C(F)(F)F)ccc1F", "unit_text": "%", "inhibition": 2.51}
{"smiles_entry": "Fc1ccc(-c2ncn(C3CCNCC3)c2-c2ccnc(Oc3ccc(Oc4ccccc4)cc3)n2)cc1", "unit_text": "%", "inhibition": 2.1}
{"smiles_entry": "NS(=O)(=O)c1ccc(N/N=C2\\C(=O)Nc3ccc(-c4cnco4)cc32)cc1", "unit_text": "%", "inhibition": 2.3}
{"smiles_entry": "FC(F)(F)c1cccc(Nc2nccc(-c3cnn4nc(-c5ccccc5)ccc34)n2)c1", "unit_text": "%", "inhibition": 2.35}
{"smiles_entry": "NCc1ccc(-n2c(-c3nonc3N)nc3cnccc32)cc1", "unit_text": "%", "inhibition": 6.36}
{"smiles_entry": "C[C@@H](Oc1cc(-n2cnc3ccc(OC4CCN(C)CC4)cc32)sc1C(N)=O)c1ccccc1Cl", "unit_text": "%", "inhibition": 3.46}
{"smiles_entry": "COc1ccc2cc(-c3c(-c4ccncc4)nc(-c4ccc(S(C)(=O)=O)cc4C)n3C)ccc2c1", "unit_text": "%", "inhibition": 3.38}
{"smiles_entry": "Cc1ccc(NC(=O)c2ccoc2)cc1-c1ccc(C(=O)NCC2CC2)cc1", "unit_text": "%", "inhibition": 0.5}
